Each record here notes measured Kd.
# target_system: T1, MICB005-ECD-HISAvi (human, UniProt Q29980 24-309)
# T1 construct: Two sources under one name in the two kinetic assays; also called MICB005 polypeptide
# T1 sequence: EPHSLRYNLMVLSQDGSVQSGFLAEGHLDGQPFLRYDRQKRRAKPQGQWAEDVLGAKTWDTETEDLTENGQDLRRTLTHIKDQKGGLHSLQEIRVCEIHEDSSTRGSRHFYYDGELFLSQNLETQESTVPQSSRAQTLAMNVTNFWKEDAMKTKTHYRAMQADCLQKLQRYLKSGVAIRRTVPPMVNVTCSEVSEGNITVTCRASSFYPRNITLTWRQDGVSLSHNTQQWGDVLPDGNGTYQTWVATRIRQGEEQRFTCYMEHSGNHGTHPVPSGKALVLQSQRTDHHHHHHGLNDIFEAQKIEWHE
# experimental_protocol: SPR (Carterra); antibody captured by anti-human Fc, monomeric ECD antigen injected;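 further: dissociation phase followed for about 10 min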
Provide only the numeric value, understood in nM.

13A9 (antibody, human IgG1, kappa, V domains shown) VH: QVQLQQSGAELVRPGTSVKVSCKASGYAFTNYLIEWVKQRPGQGLEWIGAINPGSGATNYNEKFKDKARLTADKSSNTAYLQFSSLTSDDSAVYFCARFLGNYFDNWGQGATLTVSS VL: DIQMTQSPASLSASVGETVTITCRASGNIHSYLAWYQQKQGKSPQLLVYYAETLADGVPSRFSGRGSGTQYSLKINSLQPEDFGSYFCQQFWTTPYTFGGGTKVEIKR : 4.38

Find the recorded Kd belonging to 6E1.1.12 (antibody, human IgG1, kappa, V domains shown) VH: QGQMQQSGAELVKPGASVKLSCKTSGFTFSDNYISWLKQKPGQSLEWIAWIYAGTGGSSYNQKFRDKAQLTVDTSSRTAYMQLSSLTTEDSAIYYCARHDYYGTSGAWFAYWGRGTLVTVSA VL: DVLMTQTPLSLPVSLGDQASISCRSSQHIVHSNENTYLEWYLQKPGQSPKLLIYKVSNRFSGVPDRFSGSGSGTDFTLKISRVEAEDLGVYYCFQGSHVPWTFGGGTKVEIKR and report it.
8.62
